Data credit: PubChem BioAssay AID1159580

- assay_details: chemical genetic growth profiling, strain panel (AID 1159580);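 further: tested at 20 µM; growth read once vehicle control cultures reached saturation at 30 °C; 1 = growth at the plate median or of vehicle wells; lower values mean less growth of the strain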
- experimental_conditions: S. cerevisiae deletion strains, growth OD, locus YPR135W, strain CTF4, hits give low values
In all, about 5,500 compounds went through this assay and about 2,000 (36%) were called active. Inconclusive results (about 18%) are left out. The list shows a part of the results.
Each entry below carries its reported normalized growth.
Form field (numeric): enter value without unit.

# annotated cases, reported normalized growth shown
O=C(NC(=S)Nc1ccccn1)c1ccccc1 | 0.552
Cc1oc(S(=O)(=O)N(C)C)cc1C(=O)O | 1.34
O=C(Nc1ccccc1F)C(Cl)Cl | 0.99
Clc1cc(Cl)cc(-n2cccc2)c1 | 0.917
CCCCCCNC(=O)NCCCCCC | 0.824

[Q] Return normalized growth for the following compound: "O=S(=O)(N/N=C\c1ccc(Cl)cc1)c1ccc(-c2ccccn2)s1"
[A] 0.711

[Q] Return normalized growth for the following compound: "Cc1onc(NC(=O)NC(=O)c2c(F)cccc2Cl)c1Br"
[A] 0.977

[Q] Return normalized growth for the following compound: "NC(N)=NC(N)=Nc1cc(C(F)(F)F)cc(C(F)(F)F)c1"
[A] 1

[Q] Return normalized growth for the following compound: "CC(C)c1ccc(NC(=S)NC(=O)c2ccc(C(F)(F)F)cc2)cc1"
[A] 1.09

[Q] Return normalized growth for the following compound: "Nc1ccccc1SCC(=O)Nc1c(F)cccc1F"
[A] 1.02

[Q] Return normalized growth for the following compound: "CCCc1cc(Br)c(-n2cccc2)c(Br)c1"
[A] 1.05
